- System: tet-on competent MLL/AF9+Nras AML
- assay-details: Pooled negative selection RNAi screening (deep sequencing)
- Format: cell-based, mouse
- recorded-conditions: deep sequencing reads, On Dox compared to T0
measured-metric: Fold depletion in AML (Fold)
Quick note: give the figure in Fold, leave out the unit.

Prompt: // Input: Centa1.940: shRNA, SEQ ID NO: 106 (nucleic acid) TGCTGTTGACAGTGAGCGCCCGAAGGCTCATGTACTTCAATAGTGAAGCCACAGATGTATTGAAGTACATGAGCCTTCGGTTGCCTACTGCCTCGGA . Output its Fold depletion in AML only.
Completion: 8.24

Prompt: Please indicate Fold depletion in AML recorded for Hpgd.1070: shRNA, SEQ ID NO: 132 (nucleic acid) TGCTGTTGACAGTGAGCGCAAACTAGGTTATAACCTATAATAGTGAAGCCACAGATGTATTATAGGTTATAACCTAGTTTTTGCCTACTGCCTCGGA
Completion: 10.43

Prompt: Give Fold depletion in AML for the following molecule: Myc.1888: shRNA, SEQ ID NO: 146 (nucleic acid) TGCTGTTGACAGTGAGCGAGAAACGACGAGAACAGTTGAATAGTGAAGCCACAGATGTATTCAACTGTTCTCGTCGTTTCCTGCCTACTGCCTCGGA
Completion: 8.48

Prompt: Consider the molecule Mn1.1403: neutral control shRNA, SEQ ID NO: 205 (nucleic acid) TGCTGTTGACAGTGAGCGCAACGGTACCCTAGACAACCAATAGTGAAGCCACAGATGTATTGGTTGTCTAGGGTACCGTTATGCCTACTGCCTCGGA and give its recorded Fold depletion in AML.
Completion: 1.94
